Below, each entry is listed alongside its reported IC50.
target_or_test_system: SARS-CoV-2 N protein-RNA1 interaction (Severe acute respiratory syndrome coronavirus 2, UniProt P0DTC9)
Construct: made in house; host or cells: Escherichia coli BL21 (DE3)
assay_comment: biochemical
Type: binding
particulars: IC50 for blocking the N protein-RNA1 interaction
metric_name: IC50

> print(dat)
                              sample.smiles  value.measured
1  COc1ccc2c(c1)C=C1Cn3c-2c(C2CCCCC2)c2ccc(cc23)C(=O)NS(=O)(=O)N(C)CCOCCN(C)C1=O           10 µM
2  COc1ccc2cc(-c3cc(-c4cc(Cl)cc(Cl)c4)nn3[C@@H](C)c3ccc(C(=O)NCCC(=O)O)cc3)ccc2c1         14.4 µM
3                CCCCCCCC/C=C\CCCCCCCC(=O)O         15.7 µM
4  Cc1cc2c(C(C)C)c(O)c(O)c(C=O)c2c(O)c1-c1c(C)cc2c(C(C)C)c(O)c(O)c(C=O)c2c1O          7.1 µM

* * *

target_or_test_system: SARS-CoV-2 N protein-RNA1 interaction (Severe acute respiratory syndrome coronavirus 2)
Construct: made in house; host or cells: Escherichia coli BL21 (DE3)
assay_comment: biochemical
Format: binding
particulars: read-out: IC50 for blocking the N protein-RNA1 interaction
Criterion: IC50 strictly under 6 µM. Met: yes. Not met: no.

molecule	label_class
O=S(=O)(O)c1ccc(N=C2C=CC(=C(c3ccc(Nc4ccc(S(=O)(=O)O)cc4)cc3)c3ccc(Nc4ccc(S(=O)(=O)O)cc4)cc3)C=C2)cc1 [Methyl Blue]	yes
O=C(NCc1ccc(Oc2ccccc2)cc1)c1nc(-c2cc(Br)c(O)c(Br)c2)no1 [IOWH-032]	no
CCCCCCCCCCCCCCCc1cccc(O)c1C(=O)O [Anacardic Acid]	no
O=C(/C=C/c1ccc(O)c(O)c1)O[C@@H]1CC(O)(C(=O)O)C[C@@H](OC(=O)/C=C/c2ccc(O)c(O)c2)C1O (some centres unmarked) [Isochlorogenic acid A, 3,5-dicaffeoylquinic acid]	yes
C[C@@H](O)[C@H]1C(=O)N2C(C(=O)O)=C(S[C@@H]3CN[C@H](C(=O)Nc4cccc(C(=O)O)c4)C3)[C@H](C)[C@H]12 [Ertapenem sodium]	no
O=C(/C=C/c1ccc(O)c(O)c1)O[C@H]1[C@H](O)C[C@](O)(C(=O)O)C[C@H]1OC(=O)/C=C/c1ccc(O)c(O)c1 [4,5-Dicaffeoylquinic acid]	yes
Cc1cc2c(C(C)C)c(O)c(O)c(C=O)c2c(O)c1-c1c(C)cc2c(C(C)C)c(O)c(O)c(C=O)c2c1O [(R)-(-)-Gossypol acetic acid]	no
Cc1cc(/C=C(\C#N)C(=O)Nc2cccc(Br)c2)c(C)n1-c1ccc(C(=O)O)cc1 [RNPA1000]	no

Numbers sourced from paper PMC9628480.
